Target: beta-catenin/TCF4 engagement (Homo sapiens)
Construct: expressed in transfected cells; host or cells: HEK293
Sequence (P35222 1-781): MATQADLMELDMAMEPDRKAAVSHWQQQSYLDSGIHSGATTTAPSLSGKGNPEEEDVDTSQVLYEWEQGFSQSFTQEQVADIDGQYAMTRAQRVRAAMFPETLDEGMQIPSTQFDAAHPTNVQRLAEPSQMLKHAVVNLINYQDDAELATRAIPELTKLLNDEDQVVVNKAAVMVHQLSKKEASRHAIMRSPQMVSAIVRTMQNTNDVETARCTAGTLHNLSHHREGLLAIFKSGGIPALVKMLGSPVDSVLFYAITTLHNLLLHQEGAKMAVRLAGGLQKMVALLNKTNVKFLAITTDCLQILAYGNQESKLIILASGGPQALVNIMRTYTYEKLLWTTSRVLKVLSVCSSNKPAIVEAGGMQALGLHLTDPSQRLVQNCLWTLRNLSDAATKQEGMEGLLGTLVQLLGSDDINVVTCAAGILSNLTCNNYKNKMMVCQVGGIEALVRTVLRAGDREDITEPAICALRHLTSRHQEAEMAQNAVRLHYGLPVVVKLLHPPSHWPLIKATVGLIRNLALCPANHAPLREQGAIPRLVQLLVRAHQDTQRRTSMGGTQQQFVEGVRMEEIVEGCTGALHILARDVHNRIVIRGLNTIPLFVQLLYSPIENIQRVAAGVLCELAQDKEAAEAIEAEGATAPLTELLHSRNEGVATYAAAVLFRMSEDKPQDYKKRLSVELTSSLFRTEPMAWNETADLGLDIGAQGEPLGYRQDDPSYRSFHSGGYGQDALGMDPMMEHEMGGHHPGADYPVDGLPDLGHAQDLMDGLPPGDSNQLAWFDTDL
Experiment: Nano-BRET target engagement assay (B-cat-Halo & TCF4-Luc in HEK293 cells)
Type: cell-based
Settings: absolute IC50; read-out: NanoBRET Abs IC50
Rule: IC50 below 20 µM gives criterion met. Equal to or above 20 µM gives criterion not met.

compound: CC(=O)N1CCC[C@]12CC=CCCCC1(CCCC=CCCCOC(=O)N3CC[C@@](C(=O)N[C@@H](Cc4ccsc4)C(=O)N[C@@H](Cc4csc5ccccc45)C(=O)N[C@@H](CC(C)C)C(N)=O)(C3)NC(=O)[C@H](CC(C)C)NC(=O)[C@H](Cc3ccccc3)NC(=O)[C@H](C)NC(=O)[C@H](C)NC(=O)[C@H](CN(CC(=O)O)CC(F)(F)F)NC(=O)[C@H](CC(=O)O)NC1=O)NC(=O)[C@H](CC(C)(C)C)NC(=O)[C@H](CC(=O)O)NC2=O (stereo partly drawn) [I-1747]
group.label: criterion not met
//
compound: CC(=O)N1CCC[C@]12CC=CCCCC1(CCCC=CCCCOC(=O)N3CC[C@@](C(=O)N[C@@H](Cc4ccsc4)C(=O)N[C@@H](Cc4csc5ccccc45)C(=O)N[C@@H](CCC(=O)N4CCC(N5CCCCC5)CC4)C(N)=O)(C3)NC(=O)[C@H](CC(C)C)NC(=O)[C@H](Cc3ccccc3)NC(=O)[C@H](C)NC(=O)[C@H](C)NC(=O)[C@H](CN(CC(=O)O)CC(F)(F)F)NC(=O)[C@H](CC(=O)O)NC1=O)NC(=O)[C@H](CC(C)(C)C)NC(=O)[C@H](CC(=O)O)NC2=O (stereo partly drawn) [I-1797]
group.label: criterion not met
//
compound: CC(=O)N1CCC[C@]12CC=CCCCC1(CCCC=CCCCOC(=O)N3CC[C@@](C(=O)N[C@@H](Cc4ccsc4)C(=O)N[C@@H](Cc4csc5ccccc45)C(=O)N[C@@H](CCC(N)=O)C(N)=O)(C3)NC(=O)[C@H]([C@@H](C)O)NC(=O)[C@H](Cc3ccccc3)NC(=O)[C@H](C)NC(=O)C(C)(C)NC(=O)[C@H]([C@@H](C)O)NC(=O)[C@H](CC(N)=O)NC1=O)NC(=O)[C@H](CC(C)(C)C)NC(=O)[C@H](CC(=O)O)NC2=O (stereo partly drawn) [I-2409]
group.label: criterion not met
//
compound: CC(=O)N1CCC[C@]12CC=CCCCC1(CCCC=CCCCOC(=O)N3CC[C@@](C(=O)N[C@@H](Cc4ccccc4Cl)C(=O)N[C@@H](Cc4csc5ccccc45)C(=O)N[C@H](CO)[C@@H](C)O)(C3)NC(=O)[C@H]([C@@H](C)O)NC(=O)[C@H](Cc3ccccc3)NC(=O)[C@H](C)NC(=O)[C@H](C)NC(=O)[C@H](CC(=O)O)NC(=O)[C@H](CC(=O)O)NC1=O)NC(=O)[C@H](CC(C)(C)C)NC(=O)[C@H](CC(=O)O)NC2=O (stereo partly drawn) [I-1245]
group.label: criterion met
//
compound: CC(=O)N1CCC[C@]12CC=CCCCC1(CCCC=CCCCOC(=O)N3CC[C@@](C(=O)N[C@@H](Cc4ccsc4)C(=O)N[C@@H](Cc4csc5ccccc45)C(=O)N[C@@H](Cc4c[nH]cn4)C(N)=O)(C3)NC(=O)[C@H](CC(N)=O)NC(=O)[C@H](Cc3ccccc3)NC(=O)[C@H](C)NC(=O)[C@H](C)NC(=O)[C@H](CC(N)=O)NC(=O)[C@H](CC(=O)O)NC1=O)NC(=O)[C@H](CC(C)(C)C)NC(=O)[C@H](CC(=O)O)NC2=O (stereo partly drawn) [I-837]
group.label: criterion not met
//
compound: CC(=O)N1CCC[C@]12CC=CCCCC1(CCCC=CCCCOC(=O)N3CC[C@@](C(=O)N[C@@H](Cc4ccccc4C(F)(F)F)C(=O)N[C@@H](Cc4csc5ccccc45)C(=O)N[C@@H](CCC(N)=O)C(N)=O)(C3)NC(=O)[C@H](Cc3ccccc3)NC(=O)[C@H](Cc3ccccc3)NC(=O)[C@H](C)NC(=O)[C@H](C)NC(=O)[C@H](CC(=O)O)NC(=O)[C@H](CC(=O)O)NC1=O)NC(=O)[C@H](CC(C)(C)C)NC(=O)[C@H](CC(=O)O)NC2=O (stereo partly drawn) [I-1319]
group.label: criterion met
//
compound: CC(=O)NCCCC[C@@H]1NC(=O)[C@H](Cc2ccccc2)NC(=O)[C@H](C)NC(=O)[C@H](C)NC(=O)[C@H](Cc2cccc(C(=O)O)c2)NC(=O)[C@H](CC(=O)O)NC(=O)C2(CCCC=CCCCOC(=O)N3CC[C@@](C(=O)N[C@@H](Cc4ccccc4C(F)(F)F)C(=O)N[C@@H](Cc4csc5ccccc45)C(=O)N[C@@H](CCC(=O)N(C)C)C(N)=O)(C3)NC1=O)CCCC=CC[C@]1(CCCN1C(C)=O)C(=O)N[C@@H](CC(=O)O)C(=O)N[C@@H](CC(C)(C)C)C(=O)N2 (stereo partly drawn) [I-2539]
group.label: criterion met
//
compound: CC(=O)N1CCC[C@]12CC=CCCCC1(CCCC=CCCCOC(=O)N3CC[C@@](C(=O)N[C@@H](Cc4ccccc4C(F)(F)F)C(=O)N[C@@H](Cc4csc5ccccc45)C(=O)N[C@@H](CCC(=O)N4CCOCC4)C(N)=O)(C3)NC(=O)[C@H](CCC(=O)N(C)C)NC(=O)[C@H](Cc3ccccc3)NC(=O)[C@H](C)NC(=O)[C@H](C)NC(=O)[C@H](Cc3cccc(C(=O)O)c3)NC(=O)[C@H](CC(=O)O)NC1=O)NC(=O)[C@H](CC(C)(C)C)NC(=O)[C@H](CC(=O)O)NC2=O (stereo partly drawn) [I-2544]
group.label: criterion met
//
compound: CC(=O)N[C@]1(C)CC=CCCCC2(CCCC=CCCCOC(=O)N3CC[C@@](C(=O)N[C@@H](Cc4ccccc4C(F)(F)F)C(=O)N[C@@H](Cc4csc5ccccc45)C(=O)N[C@@H](CCC(N)=O)C(N)=O)(C3)NC(=O)[C@H](CC(C)C)NC(=O)[C@H](Cc3ccccc3)NC(=O)[C@H](C)NC(=O)[C@H](C)NC(=O)[C@H](Cc3cccc(C(=O)O)c3)NC(=O)[C@H](CC(=O)O)NC2=O)NC(=O)[C@H](CC(C)(C)C)NC(=O)[C@H](CC(=O)O)NC1=O (stereo partly drawn) [I-2563]
group.label: criterion met

----------
biological target: full-length beta-Catenin (Uniprot ID P35222) (Homo sapiens); construct: 10 nM full-length beta-Catenin (Uniprot ID P35222); test: Fluorescence polarization IC50 (beta-catenin / 5FAM-TCF4 10-53 competition); format: binding; details: fluorescence polarization, beta-catenin; read-out: FP EC50
pIC50: −log10 of the molar value.
Property: pIC50; scope: individual compounds
quantity.measured: pIC50

compound: CCCC[C@@H]1NC(=O)[C@H](CC(=O)O)NC(=O)[C@]2(CC=CCCCC3(CCCC=CCCCOC(=O)N4CC[C@@](C(=O)N[C@@H](Cc5ccsc5)C(=O)N[C@@H](Cc5csc6ccccc56)C(=O)N[C@@H](CC(C)C)C(N)=O)(C4)NC(=O)[C@H](CC(C)C)NC(=O)[C@H](Cc4ccccc4)NC(=O)[C@H](C)NC(=O)[C@H](C)NC(=O)[C@H](CC(=O)O)NC(=O)[C@H](CC(=O)O)NC3=O)NC1=O)CCCN2C(C)=O (stereo partly drawn) [I-1412]
numeric.value: 7.10

compound: CC(=O)N1CCC[C@]12CC=CCCCC1(CCCC=CCCCCCC[C@@](C)(C(=O)N[C@@H](Cc3ccccc3Cl)C(=O)N[C@@H](Cc3csc4ccccc34)C(=O)N[C@@H](CCO)C(N)=O)NC(=O)[C@H](CO)NC(=O)[C@H](Cc3ccccc3)NC(=O)[C@H](C)NC(=O)[C@H](C)NC(=O)[C@H](CN(CC(=O)O)CC(F)(F)F)NC(=O)[C@H](CC(=O)O)NC1=O)NC(=O)[C@H](CC(C)(C)C)NC(=O)[C@H](CC(=O)O)NC2=O (stereo partly drawn) [I-998]
numeric.value: 6.90

compound: CC(=O)N1CCC[C@]12CC=CCCCC1(CCCC=CCCCOC(=O)N3CC[C@@](C(=O)N[C@@H](Cc4ccccc4Cl)C(=O)N[C@@H](Cc4csc5ccccc45)C(=O)N[C@@H](CCC(N)=O)C(N)=O)(C3)NC(=O)[C@H](CC(C)C)NC(=O)[C@H](Cc3ccccc3)NC(=O)[C@H](C)NC(=O)[C@H](C)NC(=O)[C@H](CC(=O)O)NC(=O)[C@H](CC(=O)O)NC1=O)NC(=O)[C@H](CC(C)(C)C)NC(=O)[C@H](CC(=O)O)NC2=O (stereo partly drawn) [I-1062]
numeric.value: 6.41
